test: Inhibition of sheep brain tubulin polymerization by fluorescence assay; parameters: species or system Ovis aries
Endpoint: pIC50
Numbers only, as −log10 of the molar value.

Worked examples, 3 molecules total:
CCOC(=O)c1cc(C(=O)c2cc(OC)c(OC)c(OC)c2Br)n2ccc(OC)cc12	3.98
CCOC(=O)c1cc(C(=O)c2cc(OC)c(OC)c(OC)c2)n2c(C)cccc12	5.10
COc1cc([C@@H]2c3cc4c(cc3C[C@H]3COC(=O)[C@@H]32)OCO4)cc(OC)c1OC	5.75

Now look at this one.
**Query** Using the record for "CCOC(=O)c1c(C(=O)OCC)c2c(C)cc(C)cn2c1C(=O)c1cc(OC)c(OC)c(OC)c1" , report its pIC50.
**Result** 4.03

* * *

species on record: Ovis aries; experiment: Inhibition of sheep brain tubulin polymerization at 100 uM by fluorescence assay
Endpoint: inhibition (%)
Numbers only, in %.

CCOC(=O)c1cc(C(=O)c2cc(OC)c(OC)c(OC)c2)n2ccc(C)cc12	72
CCOC(=O)c1cc(C(=O)c2cc(OC)c(OC)c(OC)c2Br)n2ccc(OC)cc12	54
CCOC(=O)c1c2c(O)nnc(-c3cc(OC)c(OC)c(OC)c3)c2n2cc(C)cc(C)c12	43

Please state inhibition for every compound in the list that follows.
1. CCOC(=O)c1cc(C(=O)c2cc(OC)c(OC)c(OC)c2)n2c(C)cccc12
2. COc1cc(C(=O)c2cc(C(=O)O)c3cccc(C)n23)cc(OC)c1OC
3. CCOC(=O)c1cc(C(=O)c2cc(OC)c(OC)c(OC)c2)n2cc(C)ccc12
4. COC(=O)c1c(C(=O)OC)c2cc(OC)ccn2c1C(=O)c1cc(OC)c(OC)c(OC)c1

**Result**
1. 83
2. 28
3. 73
4. 16

Please state inhibition for every compound in the list that follows.
1. CCOC(=O)c1c(C(=O)OCC)c2c(C)cc(C)cn2c1C(=O)c1cc(OC)c(OC)c(OC)c1
2. COC(=O)c1c(C(=O)OC)c2cccc(C)n2c1C(=O)c1cc(OC)c(OC)c(OC)c1

**Result**
1. 58
2. 32

* * *

assay: Growth inhibition of human EKVX cells at 10^-5 M after 48 hrs by SRB assay; type: functional; details: read-out: GI
Answer each item with its documented inhibition of growth at 10 µM.
One number for each entry, in %.

Worked examples, 10 molecules total:
CCOC(=O)c1cc(C(=O)c2ccc(OC)cc2)n2cc(C)cc(C)c12	29
COC(=O)c1c(C(=O)OC)c2cc(C)ccn2c1C(=O)c1cc(OC)c(OC)c(OC)c1	0
CCOC(=O)c1cc(C(=O)c2cc(OC)c(OC)c(OC)c2)n2ccc(C)cc12	50
CCOC(=O)c1cc(C(=O)c2cc(OC)c(OC)c(OC)c2)n2ccc(N(C)C)cc12	9
COC(=O)c1c(C(=O)OC)c2cc(N(C)C)ccn2c1C(=O)c1cc(OC)c(OC)c(OC)c1	0
COC(=O)c1c(C(=O)OC)c2cc(OC)ccn2c1C(=O)c1cc(OC)c(OC)c(OC)c1	7
CCOC(=O)c1cc(C(=O)c2cc(OC)c(OC)c(OC)c2)n2cccc(C#N)c12	50
COC(=O)c1c(C(=O)OC)c2cc(N(C)C)ccn2c1C(=O)c1ccc(OC)c(OC)c1	0
CCOC(=O)c1cc(C(=O)c2ccc(OC)c(OC)c2)n2ccc(OC)cc12	0
CCOC(=O)c1cc(C(=O)c2cc(OC)c(OC)c(OC)c2Br)n2ccc(OC)cc12	52

Please state inhibition of growth at 10 µM for every molecule in the list that follows.
1. COC(=O)c1c(C(=O)OC)c2cc(OC)ccn2c1C(=O)c1ccc(OC)cc1
2. CCOC(=O)c1cc(C(=O)c2cc(OC)c(OC)c(OC)c2)n2c(C)cccc12
3. CCOC(=O)c1cc(C(=O)c2cc(OC)c(OC)c(OC)c2)n2ccc(OC)cc12
4. CCOC(=O)c1cc(C(=O)c2cc(OC)c(OC)c(OC)c2)n2cc(C)cc(C)c12

**Result**
1: 13; 2: 57; 3: 4; 4: 6
